test: Selectivity index, ratio of IC50 for human HeLa cells to MIC for metronidazole sensitive Trichomonas vaginalis ATCC 33592; format: toxicity, cell-based; details: read-out: Selectivity Index
Measured metric: selectivity ratio
Output: the number by itself.

CCOC(=O)N1CCN(C(=S)SCC(O)Cn2cc([N+](=O)[O-])nc2C)CC1 (racemic) :: 19

Read the next record carefully.
INPUT: For the molecule Cc1nc([N+](=O)[O-])cn1CC(O)CSC(=S)N1CCCC(C)C1 (racemic) , what selectivity ratio is on record?
OUTPUT: 105

* * *

assay: Selectivity index, ratio of IC50 for human HeLa cells to MIC for metronidazole sensitive Trichomonas vaginalis ATCC 33592; assay type: toxicity, cell-based; settings: read-out: Selectivity Index
Measured metric: selectivity ratio

INPUT: Quick check: selectivity ratio of Cc1ncc([N+](=O)[O-])n1CC(O)CN1CCCCC1 (racemic) ?
OUTPUT: > 217

INPUT: Look up selectivity ratio for this compound: Cc1ncc([N+](=O)[O-])n1CC(O)CN1CCCC1 (racemic)
OUTPUT: > 102

INPUT: Recorded selectivity ratio for COc1ccccc1N1CCN(C(=S)SCC(O)Cn2cc([N+](=O)[O-])nc2C)CC1 (racemic) , please?
OUTPUT: > 22

INPUT: Any idea what its selectivity ratio is? The compound is Cc1ncc([N+](=O)[O-])n1CC(O)Cn1cnc([N+](=O)[O-])c1 (racemic)
OUTPUT: > 192

INPUT: For the compound Cc1ncc([N+](=O)[O-])n1CC(O)CN1CCN(c2ccco2)CC1 (racemic) , what selectivity ratio is on record?
OUTPUT: 163

INPUT: Using the record for Cc1ncc([N+](=O)[O-])n1CC(O)CSC(=S)N1CCC(C)CC1 (racemic) , report its selectivity ratio.
OUTPUT: 104

INPUT: selectivity ratio for Cc1ncc([N+](=O)[O-])n1CC(O)CN1CCN(c2ccccn2)CC1 (racemic) ?
OUTPUT: 101

INPUT: Quick one: selectivity ratio for Cc1ncc([N+](=O)[O-])n1CC(O)CN1CCCC(C)C1 (racemic) ?
OUTPUT: > 227

INPUT: For the compound Cc1ncc([N+](=O)[O-])n1CC(O)Cn1nccn1 (racemic) , what selectivity ratio is on record?
OUTPUT: > 161

INPUT: Returns the measured selectivity ratio for the input compound. Input: Cc1ncc([N+](=O)[O-])n1CC(O)CN1C(C)CCCC1C (racemic)
OUTPUT: > 119

INPUT: Any idea what selectivity ratio was measured for CCN1CCN(C(=S)SCC(O)Cn2c([N+](=O)[O-])cnc2C)CC1 (racemic) ?
OUTPUT: > 250

INPUT: What does the record list as selectivity ratio for Cc1nc([N+](=O)[O-])cn1CC(O)CSC(=S)N1CCN(c2ccccc2)CC1 (racemic) ?
OUTPUT: > 227

INPUT: Using the record for Cc1ncc([N+](=O)[O-])n1CC(O)CSC(=S)N1CCN(c2ccccc2)CC1 (racemic) , report its selectivity ratio.
OUTPUT: > 584

INPUT: Bench note: what selectivity ratio did Cc1ncc([N+](=O)[O-])n1CC(O)Cn1cnc2ccccc21 (racemic) show?
OUTPUT: 181

INPUT: I am curious: what selectivity ratio value has been reported for Cc1nc([N+](=O)[O-])cn1CC(O)CN1CCN(c2cccc(Cl)c2Cl)CC1 (racemic) ?
OUTPUT: 30

INPUT: Tell me the measured selectivity ratio of Cc1ncc([N+](=O)[O-])n1CC(O)CN1CCN(c2ncccn2)CC1 (racemic) , please.
OUTPUT: 174

INPUT: I would be grateful if you could share the reported selectivity ratio for Cc1nc([N+](=O)[O-])cn1CC(O)Cn1cncn1 (racemic) .
OUTPUT: > 50

INPUT: What value of selectivity ratio has been reported for the following compound? Cc1ncc([N+](=O)[O-])n1CC(O)CN1CCN(c2ccccc2)CC1 (racemic)
OUTPUT: > 220

* * *

Below, each of the compounds is paired with its reported selectivity ratio value.
assay: Selectivity index, ratio of IC50 for human HeLa cells to MIC for metronidazole resistant Trichomonas vaginalis ATCC 50143; assay type: toxicity, cell-based; settings: read-out: Selectivity Index
// no unit string in output, number only

Cc1ncc([N+](=O)[O-])n1CC(O)CSC(=S)N1CCCC1 (racemic) :: 9
Cc1ncc([N+](=O)[O-])n1CC(O)CSC(=S)N1CCCCC1 (racemic) :: 9
Cc1ncc([N+](=O)[O-])n1CC(O)CSC(=S)N1CCN(c2cccc(Cl)c2)CC1 (racemic) :: 15

INPUT: Sample Cc1ncc([N+](=O)[O-])n1CC(O)CSC(=S)N1CCCCCC1 (racemic) — what was its selectivity ratio?
OUTPUT: 6

INPUT: Requested read-out: selectivity ratio. Entry: Cc1nc([N+](=O)[O-])cn1CC(O)CSC(=S)N1CCN(c2cccc(Cl)c2Cl)CC1 (racemic)
OUTPUT: 2

INPUT: Param item = Cc1ncc([N+](=O)[O-])n1CC(O)CSC(=S)N1CCN(c2cccc(Cl)c2Cl)CC1 (racemic) ; retrieve measured selectivity ratio.
OUTPUT: 7

INPUT: Please look up its selectivity ratio: Cc1ncc([N+](=O)[O-])n1CC(O)CSC(=S)N1CCN(c2ccccc2F)CC1 (racemic)
OUTPUT: 56

* * *

Each entry below carries its reported MIC.
test system: Trichomonas vaginalis; test: Antiparasitic activity against metronidazole resistant Trichomonas vaginalis ATCC 50143 after 48 hrs by trypan blue exclusion assay; format: functional; settings: ATCC 50143, 48 h
In your response, the unit should come after the numeric value.

Take a look at these entries with their results.
Cc1ncc([N+](=O)[O-])n1CC(O)CN1CCN(c2cccc(Cl)c2)CC1 (racemic) :: 330 µM
Cc1nc([N+](=O)[O-])cn1CC(O)CSC(=S)N1CCCC(C)C1 (racemic) :: 1400 µM
Cc1ncc([N+](=O)[O-])n1CC(O)Cn1cnc2ccccc21 (racemic) :: 83 µM
CCN1CCN(C(=S)SCC(O)Cn2c([N+](=O)[O-])cnc2C)CC1 (racemic) :: 83.8 µM
Cc1nc([N+](=O)[O-])cn1CC(O)CSC(=S)N1CCN(c2cccc(Cl)c2Cl)CC1 (racemic) :: 510 µM
Cc1nc([N+](=O)[O-])cn1CC(O)Cn1cncn1 (racemic) :: 992 µM
Cc1ncc([N+](=O)[O-])n1CC(O)CSC(=S)N1CCCC1 (racemic) :: 152 µM
Cc1ncc([N+](=O)[O-])n1CC(O)CSC(=S)N1CCN(c2cccc(Cl)c2)CC1 (racemic) :: 68.7 µM
Cc1ncc([N+](=O)[O-])n1CC(O)CN1CCCCC1 (racemic) :: 187 µM
Cc1ncc([N+](=O)[O-])n1CCO [METRONIDAZOLE] :: 365 µM

INPUT: Which MIC is listed for CCN1CCN(C(=S)SCC(O)Cn2cc([N+](=O)[O-])nc2C)CC1 (racemic) ?
OUTPUT: 1340 µM

INPUT: Please look up its MIC: CCOC(=O)N1CCN(CC(O)Cn2c([N+](=O)[O-])cnc2C)CC1 (racemic)
OUTPUT: 91.6 µM

INPUT: I have this compound here, CCN(C)C(=S)SCC(O)Cn1c([N+](=O)[O-])cnc1C (centres undefined) , and I need its recorded MIC.
OUTPUT: 393 µM

INPUT: For the compound Cc1nc([N+](=O)[O-])cn1CC(O)CSC(=S)N1CCN(c2cccc(Cl)c2)CC1 (racemic) , what MIC is on record?
OUTPUT: 549 µM

* * *

tested on: Trichomonas vaginalis; test: Antiparasitic activity against metronidazole resistant Trichomonas vaginalis ATCC 50143 after 48 hrs by trypan blue exclusion assay; assay type: functional; conditions: ATCC 50143, 48 h
Entries and their measured MIC follow.
Quick reminder: number only, in µM, skip the unit.

COc1ccccc1N1CCN(C(=S)SCC(O)Cn2c([N+](=O)[O-])cnc2C)CC1 (racemic) :: 55.4
Cc1ncc([N+](=O)[O-])n1CC(O)CN1CCCC1 (racemic) :: 197
Cc1ncc([N+](=O)[O-])n1CC(O)CSC(=S)N(C)C (racemic) :: 82.2
Cc1ncc([N+](=O)[O-])n1CC(O)CN1CCN(c2ccccc2F)CC1 (racemic) :: 344
Cc1ncc([N+](=O)[O-])n1CC(O)CN1CCCCCC1 (racemic) :: 44.3
Cc1nc([N+](=O)[O-])cn1CC(O)CN1CCN(c2cccc(Cl)c2Cl)CC1 (racemic) :: 1210
CCN(CC)C(=S)SCC(O)Cn1c([N+](=O)[O-])cnc1C (racemic) :: 75.3
Cc1ncc([N+](=O)[O-])n1CC(O)Cn1nnc2ccccc21 (racemic) :: 41.4

INPUT: Request the reported MIC associated with COc1ccccc1N1CCN(CC(O)Cn2c([N+](=O)[O-])cnc2C)CC1 (racemic)
OUTPUT: 133

INPUT: I would be grateful if you could share the reported MIC for Cc1ncc([N+](=O)[O-])n1CC(O)CSC(=S)N1CCN(c2ccccn2)CC1 (racemic) .
OUTPUT: 148

INPUT: Record request: MIC value, item Cc1ncc([N+](=O)[O-])n1CC(O)CSC(=S)N1CCC(C)CC1 (racemic)
OUTPUT: 69.8

INPUT: # query: MIC of entry Cc1ncc([N+](=O)[O-])n1CC(O)CN1CCN(c2ncccn2)CC1 (racemic)
OUTPUT: 90

INPUT: Find the recorded MIC belonging to CCOC(=O)N1CCN(C(=S)SCC(O)Cn2c([N+](=O)[O-])cnc2C)CC1 (racemic) and report it.
OUTPUT: 60

INPUT: # MIC lookup, item CCOC(=O)N1CCN(C(=S)SCC(O)Cn2cc([N+](=O)[O-])nc2C)CC1 (racemic)
OUTPUT: 600

INPUT: Would you mind telling me what MIC value was observed for Cc1ncc([N+](=O)[O-])n1CC(O)CSC(=S)N1CCN(c2ccccc2F)CC1 (racemic) ?
OUTPUT: 56.9

INPUT: # lookup: MIC of Cc1ncc([N+](=O)[O-])n1CC(O)CSC(=S)N1CCN(c2ccccc2)CC1 (racemic)
OUTPUT: 37.1
